System: microorganisms (e.g., bacteria, yeasts, fungi)
runDescription: Targeting peptide binding to target microorganisms (Table 3)
conditionSummary: microorganism the targeting peptide binds; binding in aqueous buffers varied by peptide solubility, preferably 1x PBS
outcomeMeasure: Target(s)

The following substances have reported results that may help.
1T-71 (KIDTNQWPPNKEG; Peptide with targeting and/or antimicrobial activity) [Peptide 1T-71]: P. aeruginosa
1T-192 (ILVLLALQVELDSKFQY; Peptide with targeting and/or antimicrobial activity) [Peptide 1T-192]: S. sanguinis
1T-264 (LEGKFYMAEDFDKTPECFKDYV; Peptide with targeting and/or antimicrobial activity) [Peptide 1T-264]: S. sanguinis
1T-216 (FFLNVIAIRIPHF; Peptide with targeting and/or antimicrobial activity) [Peptide 1T-216]: S. sanguinis

Could you now consider this next substance?
What the record says about 1T-24 (EEAEEKLAEVSQAVKRLVR; Peptide with targeting and/or antimicrobial activity) [Peptide 1T-24] : Target(s) is P. aeruginosa
